- TEST TARGET: T1, 4H2588-bA
- T1 chain: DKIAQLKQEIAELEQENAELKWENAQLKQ
- ASSAY COMMENT: two-hybrid library CCNG1;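 also: natural log of median RNA to DNA barcode read ratio; higher means stronger binding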
VALUE KIND: interaction score

See these solved cases before continuing.
1) DKIAQLEQENAELEQKIAELKWKNAQLEQ [4H2223-bA]    -0.336
2) DKIAQLEQKNAELKQEIAELEWKNAQLEQ [4H2503-bA]    -0.447
3) DKIAQLEQKNAELEQEIAELEWKIAQLKQ [4H2438-bA]    -1.29
4) DEIAQLEQENAELEQKNAELEWKIAQLKQ [4H182-bA]    0.365
5) DKIAQLEQKNAELEQKIAELKWEIAQLEQ [4H2473-bA]    -1.02

a = DKIAQLKQEIAELEQENAELKWENAQLKQ [4H2588-bA]
b = DKIAQLEQEIAELKQENAELKWKNAQLEQ [4H2143-bA]
INPUT: Which value of interaction score is greater, the one for a or the one for b ? Field: selected label. Fill in the label of the entry you choose.
OUTPUT: a
(a: 1.71, b: 0.968)

A = DEIAQLEQEIAELKQKNAELKWEIAQLEQ [4H121-bA]
B = DKIAQLEQEIAELKQENAELEWKIAQLKQ [4H2134-bA]
INPUT: Of A and B , which shows the smaller interaction score value? Field: selected label. Fill in the label of the entry you choose.
OUTPUT: A

The origin of these recorded values is paper PMC10397247.
